Field: MBC. Provide a value for each of the compounds that follow.
System: Acinetobacter baumannii
MEASUREMENT_NOTES: Antibacterial activity against Acinetobacter baumannii ATCC19606 incubated for 18 to 24 hrs
Assay type: functional
EXPERIMENTAL_CONDITIONS: time 18-24 hrs
One number for each entry, in µg/mL.

# COMPOUND_STRUCTURE, MBC [µg/mL]
measured = [
    ("C[n+]1cc(-c2ccccc2)c(/C=C/c2ccc(C(C)(C)C)cc2)cc1-c1ccc(C(C)(C)C)cc1.[I-]", 1),
]

Hi! Can you tell me MBC for each of these compounds?
1. Cc1ccccc1-c1c[n+](C)c(-c2ccc(C(C)(C)C)cc2)cc1/C=C/c1ccc(C(C)(C)C)cc1.[I-]
2. CN(C)c1ccc(/C=C/c2cc(-c3ccc(C(C)(C)C)cc3)[n+](C)cc2-c2ccccc2)cc1.[I-]
3. C[n+]1cc(-c2ccccc2)c(/C=C/c2ccc(N3CCCC3)cc2)cc1-c1ccc(C(C)(C)C)cc1.[I-]
4. Cc1ccccc1-c1c[n+](C)c(-c2ccc(C(C)(C)C)cc2)cc1/C=C/c1ccc(O)cc1.[I-]
5. Cc1ccccc1-c1c[n+](C)c(-c2ccc(C(C)(C)C)cc2)cc1/C=C/c1ccc(N(C)C)cc1.[I-]

Output:
1: 2; 2: 4; 3: 2; 4: 16; 5: 2

---

System: Staphylococcus aureus
MEASUREMENT_NOTES: Antibacterial activity against erythromycin-susceptible Staphylococcus aureus ATCC25923 incubated for 18 to 24 hrs
Type: functional
EXPERIMENTAL_CONDITIONS: time 18-24 hrs
So I've got a bunch of compounds here, and I need their MBC values.
Answers are plain numbers, in mg/L.

# COMPOUND_STRUCTURE, ENDPOINT_RESULT
rows = [
    ("Cc1ccccc1-c1c[n+](C)c(-c2ccc(C(C)(C)C)cc2)cc1/C=C/c1ccc(N(C)C)cc1.[I-]", 0.25),
    ("CN(C)c1ccc(/C=C/c2cc(-c3ccc(C(C)(C)C)cc3)[n+](C)cc2-c2ccccc2)cc1.[I-]", 1),
    ("C[n+]1cc(-c2ccccc2)c(/C=C/c2ccc(N3CCCC3)cc2)cc1-c1ccc(C(C)(C)C)cc1.[I-]", 1),
    ("Cc1ccccc1-c1c[n+](C)c(-c2ccc(C(C)(C)C)cc2)cc1/C=C/c1ccc(O)cc1.[I-]", 2),
    ("Cc1ccccc1-c1c[n+](C)c(-c2ccc(C(C)(C)C)cc2)cc1/C=C/c1ccc(C(C)(C)C)cc1.[I-]", 0.5),
]

# evaluate next
MBC recorded for this compound, C[n+]1cc(-c2ccccc2)c(/C=C/c2ccc(C(C)(C)C)cc2)cc1-c1ccc(C(C)(C)C)cc1.[I-] , is 0.25

---

System: Enterococcus faecium
MEASUREMENT_NOTES: Antibacterial activity against vancomycin-resistant Enterococcus faecium ATCC51559 assessed as bacterial growth inhibition incubated for 20 hrs by CLSI based broth microdilution method
Assay type: functional
Exercise: state measured MIC for each of the molecules provided.
One number for each entry, in µg/mL.

Below: 3 molecules and their reported MIC.
# MOLECULE, ENDPOINT_LABEL, ENDPOINT_RESULT
rows = [
    ("CN(C)c1ccc(/C=C/c2cc(-c3ccc(C(C)(C)C)cc3)[n+](C)cc2-c2ccccc2)cc1.[I-]", "MIC", 2),
    ("CN(C)[C@@H]1C(O)=C(C(N)=O)C(=O)[C@@]2(O)C(O)=C3C(=O)c4c(O)cccc4[C@@](C)(O)[C@H]3C[C@@H]12 [TETRACYCLINE]", "MIC", 2),
    ("C[n+]1cc2c3c(ccc2c2ccc4cc5c(cc4c21)OCO5)OCO3", "MIC", 32),
]

Okay, here is my list. What is MIC for each of these?
1. CCCCCCOc1ccc(/C=C/c2cc(-c3ccccc3)c[n+](C)c2-c2ccccc2)cc1.[I-]
2. Cc1ccccc1-c1c[n+](C)c(-c2ccc(C(C)(C)C)cc2)cc1/C=C/c1ccc(N(C)C)cc1.[I-]
3. C[n+]1cc(-c2ccccc2)cc(/C=C/c2ccc(Cl)c(Cl)c2)c1-c1ccccc1.[I-]

Output:
1: 2; 2: 0.5; 3: 8
